This collection of values is drawn from patent US20210238260A1.

Biological target: T1, Factor VIIIa (recombinant FVIII, Kogenate FS, activated with alpha-thrombin) (UniProt P00451 20-2351)
T1 construct: also called FVIIIa; cofactor
T1 sequence (looked up): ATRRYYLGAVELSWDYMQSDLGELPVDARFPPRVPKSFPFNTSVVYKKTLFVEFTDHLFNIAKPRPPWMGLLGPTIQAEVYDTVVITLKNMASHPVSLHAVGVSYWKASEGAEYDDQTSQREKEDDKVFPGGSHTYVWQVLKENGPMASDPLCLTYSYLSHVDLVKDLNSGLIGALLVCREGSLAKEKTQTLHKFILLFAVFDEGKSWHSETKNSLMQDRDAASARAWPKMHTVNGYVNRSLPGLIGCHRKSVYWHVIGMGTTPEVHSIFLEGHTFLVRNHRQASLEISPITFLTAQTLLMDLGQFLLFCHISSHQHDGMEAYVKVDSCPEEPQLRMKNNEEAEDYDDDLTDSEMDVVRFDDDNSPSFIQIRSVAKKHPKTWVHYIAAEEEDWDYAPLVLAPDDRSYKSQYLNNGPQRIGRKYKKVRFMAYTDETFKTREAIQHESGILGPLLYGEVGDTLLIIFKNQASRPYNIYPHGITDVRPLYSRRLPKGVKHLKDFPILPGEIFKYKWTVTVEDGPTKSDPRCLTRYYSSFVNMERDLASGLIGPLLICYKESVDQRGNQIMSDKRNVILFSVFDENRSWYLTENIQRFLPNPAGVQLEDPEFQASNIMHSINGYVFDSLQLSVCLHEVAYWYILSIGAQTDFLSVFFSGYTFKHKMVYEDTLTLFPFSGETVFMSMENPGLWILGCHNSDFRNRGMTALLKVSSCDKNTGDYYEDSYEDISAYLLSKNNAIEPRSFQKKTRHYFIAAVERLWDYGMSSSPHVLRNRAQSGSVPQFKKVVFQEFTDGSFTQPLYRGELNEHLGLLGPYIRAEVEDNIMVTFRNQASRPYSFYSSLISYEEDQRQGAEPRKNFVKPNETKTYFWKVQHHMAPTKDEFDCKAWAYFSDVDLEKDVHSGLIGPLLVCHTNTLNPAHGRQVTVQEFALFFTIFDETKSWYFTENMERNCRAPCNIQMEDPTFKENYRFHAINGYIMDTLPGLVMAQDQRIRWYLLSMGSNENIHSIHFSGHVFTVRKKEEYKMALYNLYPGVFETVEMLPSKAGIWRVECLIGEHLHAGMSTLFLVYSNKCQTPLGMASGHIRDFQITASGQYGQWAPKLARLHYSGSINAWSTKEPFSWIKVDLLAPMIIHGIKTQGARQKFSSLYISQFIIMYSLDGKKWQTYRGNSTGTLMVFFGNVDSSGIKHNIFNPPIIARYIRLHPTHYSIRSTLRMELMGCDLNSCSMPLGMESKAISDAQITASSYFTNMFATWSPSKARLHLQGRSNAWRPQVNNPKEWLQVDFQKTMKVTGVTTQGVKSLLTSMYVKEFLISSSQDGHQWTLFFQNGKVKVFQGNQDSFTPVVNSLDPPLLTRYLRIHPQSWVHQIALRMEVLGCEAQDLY
Assay: same assay; ratio of KD-app of Catalyst Biosciences WT FIXa to KD-app of this FIXa
ENDPOINT NAME: KD-WT/KD-mut
One number for each entry.

>  <BINDER>
FIXa-D104N/K106S/Y155F/R318Y/R338E/R403E/E410N (enzyme) chain 1: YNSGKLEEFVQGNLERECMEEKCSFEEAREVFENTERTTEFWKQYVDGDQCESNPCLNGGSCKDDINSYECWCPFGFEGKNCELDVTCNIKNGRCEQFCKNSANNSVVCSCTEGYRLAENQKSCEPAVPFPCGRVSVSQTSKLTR chain 2: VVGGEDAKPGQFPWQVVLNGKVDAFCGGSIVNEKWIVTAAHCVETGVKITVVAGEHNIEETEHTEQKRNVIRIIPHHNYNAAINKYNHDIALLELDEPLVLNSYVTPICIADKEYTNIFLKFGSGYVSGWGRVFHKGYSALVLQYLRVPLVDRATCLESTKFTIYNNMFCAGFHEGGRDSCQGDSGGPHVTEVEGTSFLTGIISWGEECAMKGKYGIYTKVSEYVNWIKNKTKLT

>  <ENDPOINT NAME>
KD-WT/KD-mut

>  <NUMERIC RESULT>
1.6

$$$$

Shifting focus to the binder that follows.
Kindly note the recorded KD-WT/KD-mut for FIXa-R318Y/R338E/R403E/E410N (enzyme, also called R150Y/R170E/R233E/E240N) chain 1: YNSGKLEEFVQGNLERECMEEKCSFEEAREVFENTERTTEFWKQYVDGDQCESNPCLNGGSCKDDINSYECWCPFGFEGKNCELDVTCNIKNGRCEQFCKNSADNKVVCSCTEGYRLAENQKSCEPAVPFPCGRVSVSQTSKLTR chain 2: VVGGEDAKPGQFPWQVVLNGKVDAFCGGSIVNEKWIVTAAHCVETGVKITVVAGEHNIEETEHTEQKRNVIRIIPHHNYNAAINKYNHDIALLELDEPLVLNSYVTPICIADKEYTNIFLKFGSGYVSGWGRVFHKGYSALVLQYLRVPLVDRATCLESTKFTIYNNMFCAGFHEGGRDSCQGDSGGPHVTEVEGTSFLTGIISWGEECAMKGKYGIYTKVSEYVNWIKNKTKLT , which is 2
